# test.name: Acute toxicity in po dosed mouse
# Format: organism-based
# run.conditions: in vivo
endpoint: LD50 (mg/kg)
Answer in mg/kg, number only, no unit symbol.

{"smiles.string": "Cn1c(C(C)(C)O)cnc1[N+](=O)[O-]", "unit.symbol": "mg/kg", "LD50": 698}

Now consider the entry below.
Exercise: Returns the measured LD50 for the input compound. Input: C=C(C)c1cnc([N+](=O)[O-])n1C
Solution: 350

----------
# Test system: Trichomonas vaginalis
# test.name: Antiprotozoal activity against Trichomonas vaginalis assessed as static effect
# Format: functional
Labelling field: enter fulfilled if recorded MIC is less than 6 µg/mL. Enter not fulfilled if it equals or exceeds that cut-off.

The examples below pair each entry with its known result.
{"compound": "Cc1ncc([N+](=O)[O-])n1CCO", "class": "fulfilled"}
{"compound": "Cn1c(C(C)(O)CO)cnc1[N+](=O)[O-] (stereo unspecified)", "class": "not fulfilled"}

Exercise: For this compound, is MIC lower than 6 µg/mL? C=C(C)c1cnc([N+](=O)[O-])n1C
Solution: fulfilled

Exercise: For this compound, is MIC lower than 6 µg/mL? COC(C)(C)c1cnc([N+](=O)[O-])n1C
Solution: not fulfilled

Exercise: For this compound, is MIC lower than 6 µg/mL? Cn1c(C(C)(C)O)cnc1[N+](=O)[O-]
Solution: not fulfilled

Exercise: For this compound, is MIC lower than 6 µg/mL? CC(C)c1cnc([N+](=O)[O-])n1C
Solution: fulfilled

----------
# test.name: Acute toxicity in ip dosed mouse
# Format: organism-based
# run.conditions: in vivo
// values below are reported LD50
Write the quantity with the unit trailing the number.

{"smiles.string": "Cn1c(C(C)(C)O)cnc1[N+](=O)[O-]", "endpoint": "LD50", "assay.result": "475 mg/kg"}

Now consider the entry below.
Exercise: Returns the measured LD50 for the input molecule. Input: COC(C)(C)c1cnc([N+](=O)[O-])n1C
Solution: 225 mg/kg
